In this section, each of the compounds is paired with its reported half-life.
experiment: in vitro; details: mouse, microsomes
Numbers only here, please. The scale is min.

{"compound": "CCN(CC)CCCC(C)Nc1c2ccc(Cl)cc2nc2ccc(OC)cc12 (stereo not shown)", "numeric.result": 12.6}
{"compound": "CCN(CC)CCOc1ccc2c(c1)C(=O)c1cc(OCCN(CC)CC)ccc1-2", "numeric.result": 103}

Next compound, half-life to be filled in.
Which half-life reading was recorded for the compound CCN(CC)CCCC(C)Nc1ccnc2cc(Cl)ccc12 (stereo not shown) ?
47.3

---

experiment: in vitro; conditions: human, microsomes
endpoint.label: half-life
Write the numeric value and follow it with the unit.

{"compound": "CCN(CC)CCOc1ccc2c(c1)C(=O)c1cc(OCCN(CC)CC)ccc1-2", "half-life": "127 min"}
{"compound": "CCN(CC)CCCC(C)Nc1c2ccc(Cl)cc2nc2ccc(OC)cc12 (stereo not shown)", "half-life": "27.5 min"}
{"compound": "CCN(CC)CCCC(C)Nc1ccnc2cc(Cl)ccc12 (stereo not shown)", "half-life": "201 min"}

Next compound, half-life to be filled in.
Which half-life reading was recorded for the compound COc1ccc2nc3cc(Cl)ccc3c(Nc3cc(CN4CCCC4)c(O)c(CN4CCCC4)c3)c2n1 ?
122 min

---

system: Marburg virus/H.sapiens-tc/AGO/2005/Ang-1379v (MARV/Ang); experiment: organism not typed; format: cell-based; details: HeLa
endpoint.label: IC50 (nM)
Numbers only here, please. The scale is nM.

Please review the following examples before continuing.
{"compound": "COc1ccc2nc3cc(Cl)ccc3c(Nc3cc(CN4CCCC4)c(O)c(CN4CCCC4)c3)c2n1", "IC50 [nM]": 2720}
{"compound": "CCN(CC)CCCC(C)Nc1c2ccc(Cl)cc2nc2ccc(OC)cc12 (stereo not drawn)", "IC50 [nM]": 2940}

Next compound, IC50 to be filled in.
Under Marburg virus/H.sapiens-tc/AGO/2005/Ang-1379v (MARV/Ang): IC50 value of CCN(CC)CCOc1ccc2c(c1)C(=O)c1cc(OCCN(CC)CC)ccc1-2 ?
4510

---

details: microsomes
endpoint.label: Clint
Write the numeric value and follow it with the unit.

{"molecule": "COc1ccc2nc3cc(Cl)ccc3c(Nc3cc(CN4CCCC4)c(O)c(CN4CCCC4)c3)c2n1", "Clint": "15.5 µL·min/mg"}
{"molecule": "CCN(CC)CCCC(C)Nc1c2ccc(Cl)cc2nc2ccc(OC)cc12 (stereo not shown)", "Clint": "137.4 µL·min/mg"}
{"molecule": "CCN(CC)CCOc1ccc2c(c1)C(=O)c1cc(OCCN(CC)CC)ccc1-2", "Clint": "14.7 µL·min/mg"}

Which Clint reading was recorded for the molecule CCN(CC)CCCC(C)Nc1ccnc2cc(Cl)ccc12 (stereo not shown) ?
13.0 µL·min/mg

---

test: in vitro; conditions: guinea pig, microsomes
endpoint.label: half-life
Write the numeric value and follow it with the unit.

Which half-life reading was recorded for the compound CCN(CC)CCOc1ccc2c(c1)C(=O)c1cc(OCCN(CC)CC)ccc1-2 [Tilorone] ?
12.2 min

Then what about the compound CCN(CC)CCCC(C)Nc1c2ccc(Cl)cc2nc2ccc(OC)cc12 (stereo not shown) [Quinacrine] ?
17.1 min

Then what about the compound CCN(CC)CCCC(C)Nc1ccnc2cc(Cl)ccc12 (stereo not shown) [Chloroquine] ?
133 min

Then what about the compound COc1ccc2nc3cc(Cl)ccc3c(Nc3cc(CN4CCCC4)c(O)c(CN4CCCC4)c3)c2n1 [Pyronaridine] ?
66.1 min

---

In this section, each of the compounds is paired with its reported Clint.
details: guinea pig, microsomes
Numbers only here, please. The scale is µL·min/mg.

{"compound": "CCN(CC)CCCC(C)Nc1c2ccc(Cl)cc2nc2ccc(OC)cc12 (stereo not shown) [Quinacrine]", "Clint [µL·min/mg]": 81.3}

Which Clint reading was recorded for the compound CCN(CC)CCOc1ccc2c(c1)C(=O)c1cc(OCCN(CC)CC)ccc1-2 [Tilorone] ?
113.7

Then what about the compound COc1ccc2nc3cc(Cl)ccc3c(Nc3cc(CN4CCCC4)c(O)c(CN4CCCC4)c3)c2n1 [Pyronaridine] ?
21.0

Then what about the compound CCN(CC)CCCC(C)Nc1ccnc2cc(Cl)ccc12 (stereo not shown) [Chloroquine] ?
10.5

---

In this section, each of the compounds is paired with its reported Clint.
conditions: mouse, microsomes
Numbers only here, please. The scale is µL·min/mg.

{"compound": "CCN(CC)CCOc1ccc2c(c1)C(=O)c1cc(OCCN(CC)CC)ccc1-2", "numeric.result": 13.5}
{"compound": "CCN(CC)CCCC(C)Nc1ccnc2cc(Cl)ccc12 (stereo not shown)", "numeric.result": 29.3}

Next compound, Clint to be filled in.
Which Clint reading was recorded for the compound CCN(CC)CCCC(C)Nc1c2ccc(Cl)cc2nc2ccc(OC)cc12 (stereo not shown) ?
110.0

---

details: human, microsomes
endpoint.label: Clint (µL·min/mg)
Numbers only here, please. The scale is µL·min/mg.

Please review the following examples before continuing.
{"compound": "COc1ccc2nc3cc(Cl)ccc3c(Nc3cc(CN4CCCC4)c(O)c(CN4CCCC4)c3)c2n1", "Clint (µL·min/mg)": 11.4}
{"compound": "CCN(CC)CCOc1ccc2c(c1)C(=O)c1cc(OCCN(CC)CC)ccc1-2", "Clint (µL·min/mg)": 10.9}
{"compound": "CCN(CC)CCCC(C)Nc1c2ccc(Cl)cc2nc2ccc(OC)cc12 (stereo not shown)", "Clint (µL·min/mg)": 50.5}

Next compound, Clint to be filled in.
Which Clint reading was recorded for the compound CCN(CC)CCCC(C)Nc1ccnc2cc(Cl)ccc12 (stereo not shown) ?
6.9

---

assay: in vitro; conditions: human
endpoint.label: CC50 (µM)
Numbers only here, please. The scale is µM.

Please review the following examples before continuing.
{"compound": "COc1ccc2nc3cc(Cl)ccc3c(Nc3cc(CN4CCCC4)c(O)c(CN4CCCC4)c3)c2n1", "result.unit": "µM", "numeric.result": 4.11}
{"compound": "CCN(CC)CCCC(C)Nc1c2ccc(Cl)cc2nc2ccc(OC)cc12 (stereo not drawn)", "result.unit": "µM", "numeric.result": 8.62}

Which CC50 reading was recorded for the compound CCN(CC)CCOc1ccc2c(c1)C(=O)c1cc(OCCN(CC)CC)ccc1-2 ?
18
